- systemTested: Human GPR120 short form (Homo sapiens, UniProt Q5NUL3)
- Construct: expressed in transfected cells
- protocolDescription: Human GPR120 calcium flux assay (FLIPR), Procedure Calcium A
- Type: cell-based
- testParameters: HEK-293 cells expressing human GPR120 short form, 2500 cells/well; read-out: GPR120 Ca2+ Assay A EC50
Values of EC50 strictly less than 100 nM map to rule met, and values of at least 100 nM map to rule not met.

molecule | assignedLabel
CCc1ccc(-c2nsc(C(F)(F)F)c2COc2ccc(CCC(=O)O)c3ccccc23)cc1 [Cpd 130] | rule not met
Cc1c(CCC(=O)O)ccc(OCc2sc(Cl)cc2-c2ccc(Cl)cc2)c1C [Cpd 6] | rule met
Cc1ccc(-c2snc(Cl)c2COc2ccc(CCC(=O)O)c(C(F)(F)F)c2)c(F)c1 [Cpd 175] | rule not met
O=C(O)CCc1cc(F)c(OCc2c(-c3ccc(F)cc3F)nsc2C(F)(F)F)c(F)c1 [Cpd 174] | rule not met
CCc1ccc(-c2nsc(C3CC3)c2COc2ccc(CCC(=O)O)c(C)c2C)cc1 [Cpd 149] | rule not met
Cc1c(CCC(=O)O)ccc(OCc2c(-c3ccc(C(F)(F)F)cc3)nsc2C(F)(F)F)c1C [Cpd 224] | rule not met
Cc1c(CCC(=O)O)ccc(OCc2sc(F)cc2-c2ccc(Cl)cc2)c1C [Cpd 3] | rule met
Cc1c(CCC(=O)O)ccc(OCc2c(Cl)nsc2-c2ccc(Cl)cc2)c1C [Cpd 88] | rule met
O=C(O)CCc1c(F)c(F)c(OCc2c(-c3ccc(Cl)cc3)nsc2C(F)(F)F)c(F)c1F [Cpd 152] | rule not met
OCCCc1ccc(OCc2c(-c3ccc(Cl)cc3)nsc2C(F)(F)F)c(F)c1F [Cpd 132] | rule not met
CCc1ccc(-c2cc(F)sc2COc2ccc(CCCO)c(F)c2F)cc1 [Cpd 17] | rule not met
Cc1c(CCC(=O)O)ccc(OCc2c(-c3ccc(F)cc3)csc2C(F)(F)F)c1C [Cpd 58] | rule not met
O=C(O)CCc1cc(F)c(OCc2csnc2-c2ccc(Br)cc2)c(F)c1 [Cpd 169] | rule not met
OCCCc1cc(F)c(OCc2sc(Cl)cc2-c2ccc(Cl)cc2)c(F)c1 [Cpd 19] | rule not met
Cc1ccccc1-c1snc(C(F)(F)F)c1COc1ccc(CCC(=O)O)c(C(F)(F)F)c1 [Cpd 203] | rule not met
CC(CO)Cc1cc(F)c(OCc2c(-c3ccc(Cl)cc3)nsc2C(F)(F)F)c(F)c1 (stereo not drawn) [Cpd 230] | rule not met
CCc1ccc(-c2nsc(-c3ccccc3)c2COc2ccc(CCC(=O)O)c(C)c2C)cc1 [Cpd 233] | rule not met
CCc1ccc(-c2cc(F)sc2COc2ccc(CCC(=O)O)c(F)c2F)cc1 [Cpd 12] | rule not met

---

- systemTested: Human GPR120 short form (Homo sapiens, UniProt Q5NUL3)
- Construct: expressed in transfected cells
- Sequence (Q5NUL3 1-361): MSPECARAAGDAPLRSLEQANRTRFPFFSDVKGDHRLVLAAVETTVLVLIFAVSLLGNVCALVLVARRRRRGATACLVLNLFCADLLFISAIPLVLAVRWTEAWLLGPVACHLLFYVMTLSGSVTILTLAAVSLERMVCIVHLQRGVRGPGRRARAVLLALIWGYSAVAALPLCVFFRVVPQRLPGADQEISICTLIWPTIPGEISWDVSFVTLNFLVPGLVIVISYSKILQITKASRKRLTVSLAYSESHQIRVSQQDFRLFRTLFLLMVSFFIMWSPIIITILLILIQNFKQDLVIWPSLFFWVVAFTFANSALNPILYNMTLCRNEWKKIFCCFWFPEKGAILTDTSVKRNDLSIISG
- protocolDescription: Human GPR120 calcium flux assay (FLIPR), Procedure Calcium A
- Format: cell-based
- testParameters: HEK-293 cells expressing human GPR120 short form, 2500 cells/well; read-out: GPR120 Ca2+ Assay A EC50

compound | readoutUnit | EC50
CCc1ccc(-c2nsc(C(F)(F)F)c2COc2c(F)cc(CCC(=O)O)cc2F)c(F)c1 | µM | 0.124
COc1ccc(-c2snc(Cl)c2COc2ccc(CCCO)c(F)c2F)cc1 | µM | 0.223
O=C(O)CCc1cc(F)c(OCc2c(-c3ccccc3)nsc2C(F)(F)F)c(F)c1 | µM | 0.16
COc1ccc(-c2csc(C(F)(F)F)c2COc2c(F)cc(CCC(=O)O)cc2F)cn1 | µM | 0.143
O=C(O)CCc1cc(F)c(OCc2c(C3CC(F)(F)C3)nsc2C(F)(F)F)c(F)c1 | µM | 0.165
Cc1c(CCC(=O)O)ccc(OCc2c(-c3ccccc3)nsc2C(F)(F)F)c1C | µM | 0.133
CCc1ccc(-c2snc(Cl)c2COc2c(F)cc(CCCO)c(F)c2F)cc1 | µM | 0.139
CCc1ccc(-c2nsc(CC)c2COc2ccc(CCC(=O)O)c(C)c2C)cc1 | µM | 0.677
O=C(O)CCc1cc(F)c(OCc2c(-c3ccc(Cl)cc3)csc2C(F)(F)F)c(F)c1F | µM | 0.171
O=C(O)CCc1cc(F)c(OCc2c(C3CCCC3)nsc2C(F)(F)F)c(F)c1 | µM | 0.037
CCc1ccc(-c2cscc2COc2c(F)cc(CCC(=O)O)cc2F)cc1 | µM | 0.191
CCc1ccc(-c2nsc(C(F)(F)F)c2COc2c(F)cc(CC(C)C(=O)O)cc2F)cc1 (centres unmarked) | µM | 0.051
COc1ccc(-c2csc(C(F)(F)F)c2COc2c(F)cc(CCC(=O)O)cc2F)cc1 | µM | 0.065
COc1ccc(-c2snc(OC)c2COc2c(F)cc(CCC(=O)O)cc2F)cc1 | µM | 0.281
CCc1ccc(-c2snc(Cl)c2COc2ccc(CCCO)c(F)c2F)cc1 | µM | 0.056
O=C(O)CCc1cc(F)c(OCc2c(-c3ccc(Cl)cc3)nsc2C(F)(F)F)c(F)c1 | µM | 0.051
CC(Cc1cc(F)c(OCc2c(-c3ccc(F)cc3F)nsc2C(F)(F)F)c(F)c1)C(=O)O (centres unmarked) | µM | 0.37
CCc1ccc(-c2sc(C)c(C(F)(F)F)c2COc2ccc(CCC(=O)O)c(C)c2C)cc1 | µM | 0.564
Cc1c(CCC(=O)O)ccc(OCc2c(-c3ccc(C4CC4)cc3)nsc2C(F)(F)F)c1C | µM | 0.314
Cc1ccc(-c2snc(C(F)(F)F)c2COc2ccc(CCC(=O)O)c(C)c2C)c(F)c1 | µM | 0.182
Cc1ccc(-c2nsc(C(F)(F)F)c2COc2c(F)cc(CC(C)C(=O)O)cc2F)c(F)c1 (centres unmarked) | µM | 0.042
Cc1cc(OCc2c(-c3c(F)cc(Cl)cc3F)nsc2C(F)(F)F)c(F)cc1CCC(=O)O | µM | 0.566
O=C(O)CCc1cc(F)c(OCc2c(-c3ccc4c(c3)OCO4)csc2C(F)(F)F)c(F)c1 | µM | 0.152
Cc1cc(OCc2c(-c3ccc(Cl)cc3)nsc2C(F)(F)F)c(F)cc1CCC(=O)O | µM | 0.121
O=C(O)CCc1cc(F)c(OCc2c(C3CCOC3)nsc2C(F)(F)F)c(F)c1 (centres unmarked) | µM | 0.606
O=C(O)CCc1cc(F)c(OCc2c(-c3ccc4c(c3)OCO4)nsc2C(F)(F)F)c(F)c1 | µM | 0.062
Cc1c(CCC(=O)O)ccc(OCc2c(Cl)nsc2-c2cccc(Cl)c2)c1C | µM | 0.185
O=C(O)CCc1ccc(OCc2csnc2-c2ccc(Br)cc2)c(F)c1F | µM | 0.305
COc1cc(-c2nsc(C(F)(F)F)c2COc2ccc(CCC(=O)O)c(C)c2C)ccc1Cl | µM | 0.16
O=C(O)CCc1cc(F)c(OCc2c(-c3ccc(Cl)c(F)c3)nsc2C(F)(F)F)c(F)c1 | µM | 0.025
COc1ccc(-c2nsc(C(F)(F)F)c2COc2c(F)cc(CCC(=O)O)cc2F)c(F)c1 | µM | 0.169
O=C(O)CCc1cc(F)c(OCc2c(-c3ccc(Cl)cc3F)nsc2C(F)(F)F)c(F)c1 | µM | 0.042
Cc1c(CCC(=O)O)ccc(OCc2c(-c3ccc(Cl)cc3F)csc2C(F)(F)F)c1C | µM | 0.348
OCCCc1cc(F)c(OCc2c(-c3ccc(Cl)cc3)csc2C(F)(F)F)c(F)c1F | µM | 0.237
Cc1c(CCC(=O)O)ccc(OCc2c(-c3c(F)cc(Cl)cc3F)nsc2C(F)(F)F)c1C | µM | 0.131

Each recorded value in this set is attributed to patent US9067898B1.
